Molecular target: T1, human Y5 receptor (human, UniProt Q15761 1-445)
T1 construct: whole, on cells
T1 sequence (looked up): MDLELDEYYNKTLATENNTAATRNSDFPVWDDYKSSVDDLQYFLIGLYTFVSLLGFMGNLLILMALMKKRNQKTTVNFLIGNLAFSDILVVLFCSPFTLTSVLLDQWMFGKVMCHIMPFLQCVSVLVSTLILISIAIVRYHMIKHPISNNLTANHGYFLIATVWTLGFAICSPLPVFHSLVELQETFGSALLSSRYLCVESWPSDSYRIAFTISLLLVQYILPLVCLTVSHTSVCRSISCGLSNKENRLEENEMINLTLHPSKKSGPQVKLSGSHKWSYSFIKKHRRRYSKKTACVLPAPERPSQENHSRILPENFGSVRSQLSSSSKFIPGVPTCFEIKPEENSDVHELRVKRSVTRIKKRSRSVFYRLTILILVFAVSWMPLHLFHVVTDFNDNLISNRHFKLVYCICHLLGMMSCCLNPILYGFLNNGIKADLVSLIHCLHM
Assay: competition binding, 125I-NPY displaced, COS-7 cells with human Y5
No end group written: not given here.
So I've got a bunch of binders here, and I need their IC50 values.
Numbers only, in nM.

KKKKKKRHYLNLVTRQRY-NH2 (also called [Lys]6-PYY25-36) [Lys-Lys-Lys-Lys-Lys-Lys-PYY25-36] :: 429

Prompt: For the binder shown here, APLKPVYPGDNATPEQMAQYAADLRRYINMLTRQRY-NH2 [[Lys4,Gln34]PP] , give the reported IC50.
Completion: 0.87
